protocol description: activity coefficient (dimensionless); of the first substance listed, at infinite dilution; xn = mol fraction of the nth substance listed
condition: 298.15 K; Liquid; Chromatography; x1 = 0
measured endpoint: activity coefficient

Guide cases for activity coefficient, answers given:
> print(dat)
                                   compound     measured.endpoint  reported
1  CCCCCCCCCC [decane] + CCn1cc[n+](C)c1.N#C[B-](C#N)(C#N)C#N  activity coefficient       203
2  C=CCCC [1-pentene] + CCn1cc[n+](C)c1.N#C[B-](C#N)(C#N)C#N  activity coefficient      9.24
3  CCOCC [diethyl ether] + CCn1cc[n+](C)c1.N#C[B-](C#N)(C#N)C#N  activity coefficient      2.71

[A] CCc1ccccc1 [ethylbenzene] + CCn1cc[n+](C)c1.N#C[B-](C#N)(C#N)C#N
[B] C1=CCCCC1 [cyclohexene] + CCn1cc[n+](C)c1.N#C[B-](C#N)(C#N)C#N
Sort A and B by activity coefficient descending and give the first. Please indicate the selected item by its label. B

---

protocol description: activity coefficient (dimensionless); of the first substance listed, at infinite dilution; xn = mol fraction of the nth substance listed
condition: 308.15 K; Liquid; Chromatography; x1 = 0
measured endpoint: activity coefficient

Guide cases for activity coefficient, answers given:
> print(dat)
                                   compound  reported
1  CCO [ethanol] + CCn1cc[n+](C)c1.N#C[B-](C#N)(C#N)C#N      1.43
2  C1CCOC1 [tetrahydrofuran] + CCn1cc[n+](C)c1.N#C[B-](C#N)(C#N)C#N     0.707

[1] O [water] + CCn1cc[n+](C)c1.N#C[B-](C#N)(C#N)C#N
[2] C#CCCCC [1-hexyne] + CCn1cc[n+](C)c1.N#C[B-](C#N)(C#N)C#N
Sort 1 and 2 by activity coefficient descending and give the first. Please indicate the selected item by its label. 2
(2: 3.76, 1: 1.99)

---

protocol description: activity coefficient (dimensionless); of the first substance listed, at infinite dilution; xn = mol fraction of the nth substance listed
condition: 328.15 K; Liquid; Chromatography; x1 = 0
measured endpoint: activity coefficient

Guide cases for activity coefficient, answers given:
> print(dat)
                                   compound  reported
1  C=CCCC [1-pentene] + CCn1cc[n+](C)c1.N#C[B-](C#N)(C#N)C#N      8.24
2  Cc1ccccc1C [1,2-dimethylbenzene] + CCn1cc[n+](C)c1.N#C[B-](C#N)(C#N)C#N      2.21
3  CCCC(C)=O [pentan-2-one] + CCn1cc[n+](C)c1.N#C[B-](C#N)(C#N)C#N     0.847

[a] CCCCC [pentane] + CCn1cc[n+](C)c1.N#C[B-](C#N)(C#N)C#N
[b] CC(C)CC(C)(C)C [2,2,4-trimethylpentane] + CCn1cc[n+](C)c1.N#C[B-](C#N)(C#N)C#N
Which value of activity coefficient is smaller, the one for a or the one for b ? Please indicate the selected item by its label. a
(a: 17.6, b: 46.4)

---

protocol description: activity coefficient (dimensionless); of the first substance listed, at infinite dilution; xn = mol fraction of the nth substance listed
condition: 328.15 K; Liquid; Chromatography; x1 = 0
measured endpoint: activity coefficient

> print(dat)
                                   compound     measured.endpoint  reported
1  c1ccsc1 [thiophene] + CCn1cc[n+](C)c1.N#C[B-](C#N)(C#N)C#N  activity coefficient     0.966
2  CCCCC(C)=O [2-hexanone] + CCn1cc[n+](C)c1.N#C[B-](C#N)(C#N)C#N  activity coefficient      1.14

[1] CCC(=O)CC [pentan-3-one] + CCn1cc[n+](C)c1.N#C[B-](C#N)(C#N)C#N
[2] C#CCCCCCC [1-octyne] + CCn1cc[n+](C)c1.N#C[B-](C#N)(C#N)C#N
Which value of activity coefficient is smaller, the one for 1 or the one for 2 ? Please indicate the selected item by its label. 1
